Molecular target: 5-hydroxytryptamine receptor 1A (Rattus norvegicus, UniProt P19327)
Sequence (P19327 whole entry): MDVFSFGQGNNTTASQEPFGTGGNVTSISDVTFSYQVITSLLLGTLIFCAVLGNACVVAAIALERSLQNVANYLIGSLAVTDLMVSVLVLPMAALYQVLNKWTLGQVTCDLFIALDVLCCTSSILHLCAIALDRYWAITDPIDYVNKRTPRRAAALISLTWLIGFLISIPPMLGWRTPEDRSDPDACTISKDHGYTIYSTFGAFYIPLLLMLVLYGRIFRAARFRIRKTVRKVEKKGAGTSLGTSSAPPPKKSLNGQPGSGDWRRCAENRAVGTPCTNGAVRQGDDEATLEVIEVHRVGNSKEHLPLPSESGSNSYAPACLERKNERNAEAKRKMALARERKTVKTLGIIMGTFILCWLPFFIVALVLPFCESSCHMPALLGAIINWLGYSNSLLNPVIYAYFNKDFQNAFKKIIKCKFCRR
Experiment: Binding affinity was determined against 5-hydroxytryptamine 1A receptor using […]
pKi: −log10 of the molar value.
Measured pKi of individual entries
EXPERIMENTAL_ENDPOINT: pKi

- COc1ccccc1N1CCN(Cc2ccc(CN(C)C(C)=O)n2C)CC1.O=C(O)CCC(=O)O: 7.41
- CC(C)Oc1ccccc1N1CCN(CCc2ccc(C(=O)C(=O)N3CCCCC3)n2C)CC1.O=C(O)CCC(=O)O: 8.64
- CC(C)Oc1ccccc1N1CCN(Cc2ccc(CN3CCCCCC3=O)o2)CC1.O=C(O)CCC(=O)O: 7.29
- CC(=O)N(C)Cc1ccc(CN2CCN(c3ccccc3OC(C)C)CC2)n1C.O=C(O)CCC(=O)O: 7.92
- CC(C)Oc1ccccc1N1CCN(CCc2ccc(CN3CCCCC3=O)n2C)CC1.O=C(O)CCC(=O)O: 8.82
- COc1ccccc1N1CCN(Cc2ccc(CN(C(C)=O)C(C)C)n2C)CC1.O=C(O)CCC(=O)O: 7.80
- CC(C)Oc1ccccc1N1CCN(Cc2cc(C(=O)N3CCCCC3)cs2)CC1.Cl: 8.60
- CC(C)Oc1ccccc1N1CCN(Cc2cc(CN3CCCCC3=O)no2)CC1.Cl: 7.03

----------
Measured inhibition in vivo at 5 mg/kg of individual entries
Tested on: Rattus norvegicus
Assay: Conditioned avoidance response activity was determined by the ability to block the conditioned avoidance of a foot shock at 5 mg/kg(ip)
Format: functional
EXPERIMENTAL_ENDPOINT: inhibition in vivo at 5 mg/kg (%)

- CCCCC(=O)N(C)Cc1ccc(CN2CCN(c3ccccc3OC)CC2)n1C.O=C(O)CCC(=O)O: 2
- CC(C)Oc1ccccc1N1CCN(CCc2ccc(C(=O)C(=O)N3CCCCCC3)n2C)CC1.O=C(O)CCC(=O)O: 1
- COc1ccccc1N1CCN(CCc2ccc(C(=O)C(=O)N3CCCCC3)n2C)CC1.O=C(O)CCC(=O)O: 45
- CC(C)Oc1ccccc1N1CCN(Cc2ccc(C(=O)N3CCCCC3)s2)CC1.O=C(O)CCC(=O)O: 56
- CC(C)Oc1ccccc1N1CCN(Cc2cc(CN3CCCCC3=O)no2)CC1.Cl: 0
- COc1ccccc1N1CCN(Cc2ccc(CNC(C)=O)n2C)CC1.O=C(O)CCC(=O)O: 14
- CC(C)Oc1ccccc1N1CCN(CC2CC(CO)=NO2)CC1 (stereo not given): 96
- CCCCC(=O)N(C)Cc1ccc(CN2CCN(c3ccccc3OC(C)C)CC2)n1C.O=C(O)CCC(=O)O: 4
- COc1ccccc1N1CCN(Cc2ccc(CCN3CCCCC3=O)n2C)CC1.Cl: 75
- CCCCS(=O)(=O)N(C)Cc1ccc(CN2CCN(c3ccccc3OC)CC2)n1C.O=C(O)CCC(=O)O: 7
- CC(C)Oc1ccccc1N1CCN(CCc2ccc(C(=O)C(=O)N3CCCCC3)n2C)CC1.O=C(O)CCC(=O)O: 16
- COc1ccccc1N1CCN(Cc2ccc(CN(C)S(C)(=O)=O)n2C)CC1.O=C(O)CCC(=O)O: 23
- CC(C)Oc1ccccc1N1CCN(Cc2ccc(CN3CCCCC3=O)s2)CC1.Cl: 58
- CNC(=O)c1ccc(CN2CCN(c3ccccc3OC)CC2)n1C.O=C(O)CCC(=O)O: 22
- CC(C)Oc1ccccc1N1CCN(Cc2ccc(C(=O)N3CCCCCC3)s2)CC1.Cl: 8
- CC(C)NC(=O)c1ccc(CN2CCN(c3ccccc3OC(C)C)CC2)n1C.O=C(O)CCC(=O)O: 1
- CC(C)Oc1ccccc1N1CCN(Cc2cc(CO)no2)CC1: 29
- CC(=O)N(C)Cc1ccc(CN2CCN(c3ccccc3OC(C)C)CC2)n1C.O=C(O)CCC(=O)O: 63
- CC(C)Oc1ccccc1N1CCN(Cc2ccc(CN3CCCCC3=O)n2C)CC1: 87
- Cl.O=C(c1ccc(CN2CCN(c3cccc4ccoc34)CC2)s1)N1CCCCC1: 3
- CC(C)Oc1ccccc1N1CCN(Cc2ccc(CN(C(=O)C3CCCCC3)C(C)C)n2C)CC1.O=C(O)CCC(=O)O: 13
- CCCCS(=O)(=O)N(C)Cc1ccc(CN2CCN(c3ccccc3OC(C)C)CC2)n1C.O=C(O)CCC(=O)O: 2
- CC(C)Oc1ccccc1N1CCN(CCc2ccc(CN3CCCCC3=O)n2C)CC1.O=C(O)CCC(=O)O: 82
- CC(C)Oc1ccccc1N1CCN(Cc2ccc(CN(C)S(C)(=O)=O)n2C)CC1.O=C(O)CCC(=O)O: 8
- CC(C)Oc1ccccc1N1CCN(Cc2ccc(CCN3CCCCC3=O)n2C)CC1.Cl: 77
- O=C(O)CCC(=O)O.O=C1CCCCN1Cc1ccc(CN2CCN(c3cccc4ccoc34)CC2)s1: 63
- COc1ccccc1N1CCN(Cc2ccc(CN(C(=O)C3CCCCC3)C(C)C)n2C)CC1.O=C(O)CCC(=O)O: 36
- CC(C)Oc1ccccc1N1CCN(Cc2ccc(CN3CCCCC3=O)o2)CC1.O=C(O)CCC(=O)O: 46
- COc1ccccc1N1CCN(Cc2ccc(CN(C(C)C)S(C)(=O)=O)n2C)CC1: 1
- CC(C)Oc1ccccc1N1CCN(Cc2ccc(CN(C)C(=O)C(C)C)n2C)CC1.O=C(O)CCC(=O)O: 3
- CNC(=O)c1ccc(CN2CCN(c3ccccc3OC(C)C)CC2)n1C.O=C(O)CCC(=O)O: 15
- COc1ccccc1N1CCN(Cc2ccc(CN(C)S(=O)(=O)C(C)C)n2C)CC1.O=C(O)CCC(=O)O: 6
- COc1ccccc1N1CCN(CCc2ccc(CN3CCCCC3=O)n2C)CC1.O=C(O)CCC(=O)O: 23
- COc1ccccc1N1CCN(Cc2ccc(CN(C(C)=O)C(C)C)n2C)CC1.O=C(O)CCC(=O)O: 8
- CC(C)Oc1ccccc1N1CCN(CC2CC(CN3CCCCC3=O)=NO2)CC1 (stereo not given): 69

----------
Assay: Stability half-life at pH-2
Type: physicochemical
Criterion: half-life strictly under 20 h. Met: true. Not met: false.

• CC(C)Oc1ccccc1N1CCN(Cc2ccc(CN(C)C(=O)C(C)C)n2C)CC1.O=C(O)CCC(=O)O = true
• CC(C)NC(=O)c1ccc(CN2CCN(c3ccccc3OC(C)C)CC2)n1C.O=C(O)CCC(=O)O = false
• CC(C)Oc1ccccc1N1CCN(Cc2ccc(CN(C)S(C)(=O)=O)n2C)CC1.O=C(O)CCC(=O)O = true
• CC(C)Oc1ccccc1N1CCN(Cc2cc(CO)no2)CC1 = false
• CCCCS(=O)(=O)N(C)Cc1ccc(CN2CCN(c3ccccc3OC(C)C)CC2)n1C.O=C(O)CCC(=O)O = true
• CCCCS(=O)(=O)N(C)Cc1ccc(CN2CCN(c3ccccc3OC)CC2)n1C.O=C(O)CCC(=O)O = true
• CC(C)Oc1ccccc1N1CCN(CC2CC(CO)=NO2)CC1 (stereo not drawn) = false
• CC(C)Oc1ccccc1N1CCN(Cc2cccc(CN3CCCCC3=O)n2)CC1.Cl = false
• CC(C)Oc1ccccc1N1CCN(Cc2cc(CN3CCCCC3=O)no2)CC1.Cl = true
• CNC(=O)c1ccc(CN2CCN(c3ccccc3OC(C)C)CC2)n1C.O=C(O)CCC(=O)O = false
• COc1ccccc1N1CCN(Cc2ccc(CCN3CCCCC3=O)n2C)CC1.Cl = true
• CC(C)Oc1ccccc1N1CCN(Cc2ccc(CN3CCCCC3=O)n2C)CC1 [RWJ-25730] = true
• CC(C)Oc1ccccc1N1CCN(Cc2ccc(CCN3CCCCC3=O)n2C)CC1.Cl = true
• COc1ccccc1N1CCN(Cc2ccc(CN(C)S(C)(=O)=O)n2C)CC1.O=C(O)CCC(=O)O = true
• CC(C)Oc1ccccc1N1CCN(Cc2ccc(CN3CCCCCC3=O)o2)CC1.O=C(O)CCC(=O)O = true
• CC(C)Oc1ccccc1N1CCN(CCc2ccc(C(=O)C(=O)N3CCOCC3)n2C)CC1.O=C(O)CCC(=O)O = false
• COc1ccccc1N1CCN(Cc2ccc(CN(C)S(=O)(=O)C(C)C)n2C)CC1.O=C(O)CCC(=O)O = true
• CC(=O)N(C)Cc1ccc(CN2CCN(c3ccccc3OC(C)C)CC2)n1C.O=C(O)CCC(=O)O = true
